Reference source: ChEMBL document CHEMBL4715758

Listing of entries alongside the reported solubility kinetic.
Experiment: Kinetic solubility of compound at pH 2 by nephelometry
Type: physicochemical
Conditions: buffer, read-out: Kinetic_solubility
Dear colleague, please return just the value in µg/mL, with no unit written.

Previously resolved entries follow.
O=C(NCCc1csc(-c2ccccc2)n1)N1CCCCC1; 50
Cc1ccoc1C(=O)NCCc1csc(-c2ccccc2)n1; 6

May I ask what solubility kinetic has been recorded for O=C(NCCc1csc(-c2ccccc2)n1)c1cccc(F)c1 ?
6

----------
# half-life annotations
Assay: Metabolic stability in human liver microsomes assessed as half-life measured after 60 mins in presence of NADPH generating system by LC-MS analysis
Assay type: ADME, Microsome
Give just the numeric value; min need not be written.

Use the examples below as a reference point.
O=C(NCCc1csc(-c2ccc(F)cc2F)n1)N1CCCCC1; 5
CC(C)OC(=O)NCCc1csc(-c2ccc(F)cc2F)n1; 10
CCN(CC)C(=O)NCCc1csc(-c2ccc(F)cc2F)n1; 8

With those in mind, consider the next compound.
Give the measured half-life of O=C(NCCc1csc(-c2ccc(F)cc2F)n1)c1cc(F)ccc1F .
6

----------
Test: Selectivity index, ratio of IC50 for cytotoxicity against rat H9c2 cells assessed as reduction in cell viability to IC50 for antitrypanosomal against Trypanosoma cruzi Tulahuen trypomastigotes infected in rat H9c2 cells
Format: toxicity, cell-based
Settings: read-out: Ratio IC50
Listed next: entries and their corresponding selectivity ratio.

Below, 5 compounds whose answers are already recorded.
COc1cccc(C(=O)NCCc2csc(-c3ccccc3)n2)c1; > 15
O=C(Cc1ccc2c(c1)OCO2)NCCc1csc(-c2ccccc2)n1; > 1.2
COc1ccccc1C(=O)NCCc1csc(-c2ccccc2)n1; > 5
O=C(NCCc1csc(-c2ccccc2)n1)c1cnccn1; > 1.5
CS(=O)(=O)c1cccc(C(=O)NCCc2csc(-c3ccccc3)n2)c1; > 1.2

Could you share which selectivity ratio value was measured for O=C(NCCc1csc(-c2ccc(F)cc2F)n1)c1cc(F)ccc1F ?
> 398

Thanks! And Cc1cccc(C(=O)NCCc2csc(-c3ccccc3)n2)c1 ?
> 7.9

Same lookup for CCN(CC)C(=O)NCCc1csc(-c2ccccc2)n1 , please.
> 50

----------
Assay: Protein binding in human plasma by HPLC-MS analysis
Type: ADME, cell-free
Conditions: read-out: PPB (converted)
assayMetric: fraction unbound

Record excerpt, results attached:
O=C(NCCc1csc(-c2ccccc2)n1)c1cccc(F)c1; 0.04
Cc1ccoc1C(=O)NCCc1csc(-c2ccccc2)n1; 0.05
O=C(NCCc1csc(-c2ccccc2)n1)N1CCCCC1; 0.1

Attention now shifts to the item below.
Record request: fraction unbound value, item O=C(NCCc1csc(-c2ccccc2)n1)N1CCCC1
0.14

----------
Tested on: Trypanosoma brucei brucei
Assay: Antitrypanosomal activity against Trypanosoma brucei brucei Lister 427 strain blood stream forms incubated for 48 hrs by resazurin dye based fluorescence assay
Type: functional, organism-based
Settings: Lister 427, 48 h
pIC50 by entry:
In textbook form, pIC50 equals minus log to base ten of the concentration in mol/L.

O=C(NCCc1csc(-c2cccc(F)c2)n1)N1CCCCC1; 7.59
C[Si](C)(C)C#Cc1cccc(C(=O)NCCc2csc(-c3ccccc3)n2)c1; 5.44

Give recorded pIC50 with Trypanosoma brucei brucei for the following compound: O=C(NCCc1csc(-c2ccccc2)n1)c1ccoc1
6.46

What about CS(=O)(=O)c1cccc(C(=O)NCCc2csc(-c3ccccc3)n2)c1 ?
5.07

Please answer likewise for CCN(CC)C(=O)NCCc1csc(-c2ccccc2)n1
6.59

----------
Measured selectivity ratio, listed per entry for reference.
Experiment: Selectivity index, ratio of IC50 for cytotoxicity against human HEK293 cells assessed as reduction in cell viability to IC50 for antitrypanosomal activity against Trypanosoma brucei brucei Lister 427 blood stream form
Format: toxicity, cell-based
Details: read-out: Ratio IC50
// print number alone

O=C(NCCc1csc(-c2ccccn2)n1)C1CCCC1; 21

Requested field: selectivity ratio. Item: O=C(NCCc1csc(-c2ccccc2)n1)c1cnccn1
20

And what about the compound O=C(NCCc1csc(-c2cccc(Cl)c2)n1)N1CCCCC1 ?
511

Please answer likewise for O=C(NCCc1csc(-c2ccccc2)n1)c1ccccn1
139

Please do the same for O=C(NCCc1csc(-c2ccccc2)n1)c1ccccc1O as well.
18

What would you report for O=C(NCCc1csc(-c2cccs2)n1)C1CCCC1 ?
35

----------
Tested on: Trypanosoma cruzi
Test: Antitrypanosomal activity against Trypanosoma cruzi Tulahuen strain trypomastigotes infected in rat H9c2 cells incubated for 72 hrs by DRAQ5 DNA dye based imaging analysis
Format: functional, organism-based
Settings: H9c2, 72 h
Measured pIC50 accompanies every entry in the list below.
Please treat pIC50 as minus the base-10 logarithm of the molar concentration.

CC(C)OC(=O)NCCc1csc(-c2ccccc2)n1; 6.40
O=C(NCCc1csc(-c2ccccc2)n1)c1cc(Br)co1; 5.30
O=C(NCCc1csc(-c2ccncc2)n1)C1CCCC1; 4.49
CCN(CC)C(=O)NCCc1csc(-c2ccccc2)n1; 6.00
O=C(NCCc1csc(-c2ccccc2)n1)c1cccc(F)c1; 6.30

Requested field: pIC50. Item: O=C(NCCc1csc(-c2ccccc2)n1)N1CCCCC1
7.41

Field entry: CCN(CC)C(=O)NCCc1csc(-c2ccc(F)cc2F)n1
6.60

----------
Assay: Selectivity index, ratio of IC50 for cytotoxicity against rat H9c2 cells assessed as reduction in cell viability to IC50 for antitrypanosomal against Trypanosoma cruzi Tulahuen trypomastigotes infected in rat H9c2 cells
Type: toxicity, cell-based
Conditions: read-out: Ratio IC50
# maps each entry to its selectivity ratio

O=C(NCCc1csc(-c2ccccc2)n1)c1ccccc1O; > 3
O=C(NCCc1csc(-c2ccccc2)n1)c1ccc2ccccc2c1; > 3.1
CC(C)N(C)C(=O)NCCc1csc(-c2ccccc2)n1; > 50
O=C(NCCc1csc(-c2ccccc2)n1)c1cc(Br)co1; > 10
O=C(NCCc1csc(-c2ccccc2)n1)OCC1CC1; > 15
C[Si](C)(C)C#Cc1cccc(C(=O)NCCc2csc(-c3ccccc3)n2)c1; > 12
CC(C)OC(=O)NCCc1csc(-c2ccc(F)cc2F)n1; > 398
Cc1ccc(C(=O)NCCc2csc(-c3ccccc3)n2)cc1; 1.2
O=C(NCCc1csc(-c2ccccc2)n1)c1ccon1; > 19
O=C(NCCc1csc(-c2ccncc2)n1)C1CCCC1; > 1.5

Proceeding to the next compound to report its selectivity ratio.
# get_value(readout='selectivity ratio', item= CC(C)N(C(=O)NCCc1csc(-c2ccccc2)n1)C(C)C )
> 1.5

----------
Experiment: Intrinsic clearance in human liver microsomes assessed per mg protein measured after 60 mins in presence of NADPH generating system by LC-MS analysis
Type: ADME, Microsome
Conditions: read-out: CLH
assayMetric: microsomal CLint
Output should be the measured figure followed by the unit it is expressed in.

microsomal CLint for O=C(NCCc1csc(-c2ccccc2)n1)c1cccc(F)c1 ?
484 µL/min/mg

Also O=C(NCCc1csc(-c2ccccc2)n1)N1CCCCC1 , if possible.
244 µL/min/mg

How about this compound: O=C(NCCc1csc(-c2ccccc2)n1)C1CCCC1
296 µL/min/mg

Please do the same for O=C(NCCc1csc(-c2ccccc2)n1)N1CCCC1 as well.
177 µL/min/mg

How about this compound: CCN(CC)C(=O)NCCc1csc(-c2ccc(F)cc2F)n1
177 µL/min/mg

Cool, now O=C(NCCc1csc(-c2cccc(F)c2)n1)N1CCCCC1
445 µL/min/mg

Param item: CC(C)OC(=O)NCCc1csc(-c2ccc(F)cc2F)n1
135 µL/min/mg

----------
// values below are reported logD
Test: Partition coefficient, log D of compound at pH 7.4 by HPLC
Type: physicochemical
Conditions: octanol/water
Please state the value as a number alone, without comment.

The examples below pair each entry with its known result.
O=C(NCCc1csc(-c2ccccc2)n1)N1CCCC1; 2.8
O=C(NCCc1csc(-c2ccccc2)n1)N1CCCCC1; 3.2
Cc1ccoc1C(=O)NCCc1csc(-c2ccccc2)n1; 3.5

Now look at this one.
What value of logD has been reported for the following compound? O=C(NCCc1csc(-c2ccccc2)n1)c1cccc(F)c1
3.6

----------
System: Plasmodium falciparum
Assay: Antiplasmodial activity against chloroquine and pyrimethamine resistant erythrocytic stage of Plasmodium falciparum K1 strain assessed as reduction in [3H]hypoxanthine incorporation measured after 48 hrs by liquid scintillation counting method
Type: functional, organism-based
assayMetric: pIC50
# pIC50 = -log10(concentration in molar units)

Worked set:
O=C(NCCc1csc(-c2ccccc2)n1)c1ccccn1; 4.19
CC(C)(C)C(=O)NCCc1csc(-c2cccc(F)c2)n1; 4.46

Now for the compound whose pIC50 we want.
Identify the measured pIC50 of O=C(NCCc1csc(-c2ccccc2)n1)c1cccc(F)c1 for Plasmodium falciparum.
4.39

----------
Experiment: Metabolic stability in human liver microsomes assessed as degradation half-life measured after 60 mins in presence of NADPH generating system by LC-MS analysis
Assay type: ADME, Microsome
Conditions: read-out: T50
Field 'label' (enum: 1 (yes) / 0 (no)). Set to 1 (yes) when half-life is strictly under 7 min; else 0 (no).

Here's what some known entries look like.
O=C(NCCc1csc(-c2ccc(F)cc2)n1)N1CCCCC1; 0 (no)
O=C(NCCc1csc(-c2ccc(F)cc2F)n1)N1CCCCC1; 0 (no)
O=C(NCCc1csc(-c2ccccc2F)n1)N1CCCCC1; 1 (yes)
O=C(NCCc1csc(-c2ccccc2)n1)C1CCCC1; 1 (yes)
O=C(NCCc1csc(-c2ccccc2)n1)c1cccc(F)c1; 1 (yes)
O=C(NCCc1csc(-c2ccccc2)n1)N1CCCC1; 0 (no)

Attention now shifts to the item below.
In the record for O=C(NCCc1csc(-c2cccc(F)c2)n1)N1CCCCC1 , is half-life less than 7 min?
1 (yes)
